These data points were gathered from patent US9421209B2.

// inhibition lookup, one value per entry
test_system: P110 δ/Pi3K δ (Homo sapiens)
Sequence (O00329 whole entry, canonical isoform): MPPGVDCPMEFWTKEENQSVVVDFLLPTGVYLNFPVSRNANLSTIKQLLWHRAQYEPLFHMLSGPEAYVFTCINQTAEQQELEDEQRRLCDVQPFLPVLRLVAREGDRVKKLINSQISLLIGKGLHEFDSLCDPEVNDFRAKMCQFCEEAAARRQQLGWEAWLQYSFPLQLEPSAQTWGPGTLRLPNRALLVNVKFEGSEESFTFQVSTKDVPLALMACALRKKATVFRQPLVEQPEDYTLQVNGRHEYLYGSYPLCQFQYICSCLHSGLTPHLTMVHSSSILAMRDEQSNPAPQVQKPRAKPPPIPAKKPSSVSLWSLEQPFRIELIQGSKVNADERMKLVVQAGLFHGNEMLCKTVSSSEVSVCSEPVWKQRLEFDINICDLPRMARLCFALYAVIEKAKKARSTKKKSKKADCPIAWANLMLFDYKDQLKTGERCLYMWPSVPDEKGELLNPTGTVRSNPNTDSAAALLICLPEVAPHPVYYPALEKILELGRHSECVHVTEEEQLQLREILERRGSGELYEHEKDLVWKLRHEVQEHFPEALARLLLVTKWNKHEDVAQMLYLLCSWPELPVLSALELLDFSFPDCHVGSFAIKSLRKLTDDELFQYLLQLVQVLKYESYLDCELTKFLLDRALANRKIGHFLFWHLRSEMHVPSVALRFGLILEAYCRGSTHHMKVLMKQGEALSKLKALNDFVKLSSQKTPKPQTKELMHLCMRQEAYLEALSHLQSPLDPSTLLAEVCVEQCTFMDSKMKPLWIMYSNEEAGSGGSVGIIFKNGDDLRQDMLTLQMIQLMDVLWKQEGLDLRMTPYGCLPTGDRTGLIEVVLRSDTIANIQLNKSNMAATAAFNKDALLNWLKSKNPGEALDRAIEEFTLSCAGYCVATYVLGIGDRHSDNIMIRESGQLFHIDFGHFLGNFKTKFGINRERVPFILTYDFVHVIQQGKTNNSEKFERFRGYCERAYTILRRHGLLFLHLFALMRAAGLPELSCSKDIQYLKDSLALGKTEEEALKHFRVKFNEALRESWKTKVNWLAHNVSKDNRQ
Sequence (P27986 whole entry partner, canonical isoform): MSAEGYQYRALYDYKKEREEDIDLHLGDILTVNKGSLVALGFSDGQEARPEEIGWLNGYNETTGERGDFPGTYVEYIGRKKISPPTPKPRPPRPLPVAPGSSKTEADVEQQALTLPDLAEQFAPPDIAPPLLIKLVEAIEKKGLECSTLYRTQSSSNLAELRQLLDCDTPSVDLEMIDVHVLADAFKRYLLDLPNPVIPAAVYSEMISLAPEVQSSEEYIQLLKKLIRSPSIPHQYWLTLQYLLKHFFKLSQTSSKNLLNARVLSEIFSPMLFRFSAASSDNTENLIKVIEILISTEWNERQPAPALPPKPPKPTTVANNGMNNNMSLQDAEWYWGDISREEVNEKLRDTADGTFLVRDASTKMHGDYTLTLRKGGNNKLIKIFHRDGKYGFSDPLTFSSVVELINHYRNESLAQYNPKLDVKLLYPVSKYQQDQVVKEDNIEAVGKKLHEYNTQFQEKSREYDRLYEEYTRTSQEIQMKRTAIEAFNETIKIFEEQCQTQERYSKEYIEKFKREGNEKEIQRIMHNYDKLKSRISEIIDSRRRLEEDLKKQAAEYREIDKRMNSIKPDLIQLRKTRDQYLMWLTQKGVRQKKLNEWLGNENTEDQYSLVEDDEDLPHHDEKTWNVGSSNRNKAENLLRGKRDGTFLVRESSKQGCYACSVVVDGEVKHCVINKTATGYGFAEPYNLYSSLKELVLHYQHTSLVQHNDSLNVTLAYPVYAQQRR
protocol_notes: Fluorescent (HTRF) determination of PI3K enzyme activity, δ isoform
Assay type: biochemical
Design: dose or concentration left out as unconfirmed

Before answering, review these 8 worked examples.
Cc1n[nH]c2cc(-c3nn(C(C)c4oc5ccccc5c(=O)c4-c4cccc(F)c4)c4ncnc(N)c34)ccc12 (centres unmarked) [Example 79]; 50 to 100%
CC(c1oc2ccccc2c(=O)c1-c1cccc(F)c1)n1nc(-c2ccc(OCc3ccccc3)cc2)c2c(N)ncnc21 (centres unmarked) [Example 147]; < 50%
CC(c1oc2ccccc2c(=O)c1-c1cccc(F)c1)n1nc(-c2cnc(N)nc2)c2c(N)ncnc21 (centres unmarked) [Example 93]; 50 to 100%
Cc1n[nH]c2cc(-c3nn(Cc4oc5ccccc5c(=O)c4-c4ccccc4)c4ncnc(N)c34)ccc12 [Example 92]; 50 to 100%
COc1cc(F)ccc1-c1nn(C(C)c2oc3ccccc3c(=O)c2-c2cccc(F)c2)c2ncnc(N)c12 (centres unmarked) [Example 90]; < 50%
Cc1n[nH]c(C)c1-c1nn(C(C)c2oc3ccccc3c(=O)c2-c2cccc(F)c2)c2ncnc(N)c12 (centres unmarked) [Example 78]; < 50%
CC(c1oc2ccccc2c(=O)c1-c1cccc(F)c1)n1nc(-c2ccc(C=O)o2)c2c(N)ncnc21 (centres unmarked) [Example 179]; 50 to 100%
CC(c1oc2ccccc2c(=O)c1-c1cccc(F)c1)n1nc(-c2cnn(C)c2)c2c(N)ncnc21 (centres unmarked) [Example 164]; < 50%

Value of inhibition reported for the molecule CC(c1oc2ccc(F)cc2c(=O)c1-c1cccc(F)c1)n1nc(-c2cccc(O)c2)c2c(N)ncnc21 (centres unmarked) [Example 121a] is 50 to 100%

Value of inhibition reported for the molecule CC(c1oc2ccccc2c(=O)c1-c1cccc(F)c1)n1nc(-c2ccc(F)nc2)c2c(N)ncnc21 (centres unmarked) [Example 159] is < 50%

Value of inhibition reported for the molecule CC(c1oc2ccccc2c(=O)c1-c1cccc(F)c1)n1nc(-c2ccc3cc[nH]c3c2)c2c(N)ncnc21 (centres unmarked) [Example 94] is 50 to 100%
